target: human CYP2C19 (Homo sapiens, UniProt P33261); assay: biochemical; settings: CYP2C19 IC50
Sequence (P33261 whole entry): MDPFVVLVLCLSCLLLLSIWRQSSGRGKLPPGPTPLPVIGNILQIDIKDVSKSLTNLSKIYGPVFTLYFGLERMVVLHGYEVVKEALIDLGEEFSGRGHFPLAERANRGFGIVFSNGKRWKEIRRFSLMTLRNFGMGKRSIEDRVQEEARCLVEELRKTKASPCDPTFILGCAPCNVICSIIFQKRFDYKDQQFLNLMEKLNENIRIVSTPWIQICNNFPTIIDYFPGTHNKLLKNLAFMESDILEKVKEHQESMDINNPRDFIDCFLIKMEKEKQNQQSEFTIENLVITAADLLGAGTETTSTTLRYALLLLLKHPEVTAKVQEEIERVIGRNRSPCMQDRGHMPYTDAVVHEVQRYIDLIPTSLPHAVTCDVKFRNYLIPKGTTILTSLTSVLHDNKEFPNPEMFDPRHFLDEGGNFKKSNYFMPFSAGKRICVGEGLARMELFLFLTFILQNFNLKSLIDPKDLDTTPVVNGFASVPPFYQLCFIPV
Where a name gives a salt, the structure may show the parent alone.
Overview of reported log10 of IC50 across a group of compounds:
Units before log transform: µM; reported quantity: IC50; transform: log10.

[
  {
    "compound": "c1ccc2cc3c(ccc4ccccc43)cc2c1",
    "endpoint_result": 1.20
  },
  {
    "compound": "CCN(CC)C(=O)[C@@H]1C=C2c3cccc4[nH]cc(c34)C[C@H]2N(C)C1 [Lysergide]",
    "endpoint_result": 2.19
  },
  {
    "compound": "CCOC(=O)CC(SP(=S)(OC)OC)C(=O)OCC (centres unmarked)",
    "endpoint_result": -0.27
  },
  {
    "compound": "O=S1OCC2C(CO1)C1(Cl)C(Cl)=C(Cl)C2(Cl)C1(Cl)Cl (centres unmarked) [Endosulfan]",
    "endpoint_result": 0.50
  }
]

Input line: Value lookup for log10 of IC50; key = O=S1(=O)OCC2C(CO1)C1(Cl)C(Cl)=C(Cl)C2(Cl)C1(Cl)Cl (centres unmarked) [Endosulfan sulfate]
Output line: 0.35

* * *

Parameter IC50: see the listing below.
Molecular target: human CYP1A2 (Homo sapiens)
Sequence (P05177 1-516): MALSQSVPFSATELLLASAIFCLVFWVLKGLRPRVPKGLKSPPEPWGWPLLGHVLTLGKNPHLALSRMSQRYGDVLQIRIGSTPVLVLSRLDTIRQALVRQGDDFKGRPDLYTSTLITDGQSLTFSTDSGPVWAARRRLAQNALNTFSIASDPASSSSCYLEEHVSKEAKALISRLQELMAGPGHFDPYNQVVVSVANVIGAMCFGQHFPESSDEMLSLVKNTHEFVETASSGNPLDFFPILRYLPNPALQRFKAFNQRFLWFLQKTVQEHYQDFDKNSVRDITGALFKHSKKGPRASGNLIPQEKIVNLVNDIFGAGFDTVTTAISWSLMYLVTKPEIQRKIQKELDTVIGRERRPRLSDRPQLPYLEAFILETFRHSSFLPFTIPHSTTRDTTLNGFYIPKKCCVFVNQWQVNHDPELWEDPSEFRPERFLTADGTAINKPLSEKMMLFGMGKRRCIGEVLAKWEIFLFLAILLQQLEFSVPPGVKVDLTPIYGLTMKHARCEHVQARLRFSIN
Provide only the numeric value, understood in µM.

# annotated cases, reported IC50 shown
[
  {
    "compound": "Cc1cc(-c2cc(C)c(N)c(C)c2)cc(C)c1N [3,3'.5,5'-Tetramethylbenzidine]",
    "measurement_unit": "µM",
    "endpoint_result": 0.45
  },
  {
    "compound": "CC[C@]12CCCN3CCc4c(n(c5ccccc45)C(=O)C1)[C@@H]32 [(-)-Eburnamonine]",
    "measurement_unit": "µM",
    "endpoint_result": 24.1
  },
  {
    "compound": "Nc1nc2ccc([N+](=O)[O-])cc2s1 [2-Amino-6-nitrobenzothiazole]",
    "measurement_unit": "µM",
    "endpoint_result": 9.75
  },
  {
    "compound": "CC(=O)/C=C/c1ccc2c(c1)OCO2 [Piperonal acetone]",
    "measurement_unit": "µM",
    "endpoint_result": 0.25
  }
]

API: the following record is the query input.
Input line: Consider the compound CCCCCCCCCCCCCCCCCC(=O)O.OCCN(CCO)CCO [Triethanolamine stearate] and give its measured IC50.
Output line: 3.98

This collection of values is drawn from paper PMC12155096.
